Provide the reported Ki of each item.
- Tested on: CDK2/Cyclin E1 (Homo sapiens (Human), UniProt P24941)
- Assay remarks: biochemical
- Study conditions: CDK2_Ki (nM), phosphorylated CDK2/Cyclin E1, 150 μM ATP, Morrison tight-binding fit
Give the value, in units of nM, as a plain number.

Data request: So what's the measured Ki for this one? "CS(=O)(=O)N1CCC(Nc2ncc3cc(CCO)c(=O)n(C4CCCCCC4)c3n2)CC1"
Data returned: 1.51

Data request: Request: "CC(C)(O)CS(=O)(=O)N1CCC(Nc2ncc3ccc(=O)n([C@@H]4CCC[C@@]4(C)O)c3n2)CC1"
Data returned: 1.2

Data request: Request: CC1(C)CC(Nc2ncc3cc(CCO)c(=O)n(C4CCCC4)c3n2)CCN1S(C)(=O)=O (single isomer, unassigned; (-)) [Example 163]
Data returned: 63.2

Data request: Request: "C[C@@H]1CCC[C@@H]1n1c(=O)c(CCO)cc2cnc(NC3CCN(S(C)(=O)=O)CC3)nc21"
Data returned: 0.48

Data request: Request: Cc1cc2cnc(NC3CCN(S(=O)(=O)NC4CCOCC4)CC3)nc2n([C@H]2CCC[C@]2(C)O)c1=O (single isomer, unassigned)
Data returned: 2.47

Data request: Request: "C[C@H]1CCC[C@H]1n1c(=O)c(CO)cc2cnc(NC3CCN(S(C)(=O)=O)CC3)nc21"
Data returned: 0.27

Data request: Request: C[C@]1(O)CCC[C@@H]1n1c(=O)c(CO)cc2cnc(NC3CCN(S(C)(=O)=O)CC3)nc21 (single isomer, unassigned)
Data returned: 5.65

Data request: Request: "CNS(=O)(=O)N1CCC(Nc2ncc3cc(C)c(=O)n([C@H]4CCC[C@H]4C)c3n2)CC1"
Data returned: 1.56

Data request: Request: C[C@@]1(O)CCC[C@H]1n1c(=O)ccc2cnc(NC3CCN(S(=O)(=O)C(F)(F)F)CC3)nc21 (single isomer, unassigned)
Data returned: 1.34

Data request: Request: "CNS(=O)(=O)N1CCC(Nc2ncc3cc(C)c(=O)n([C@@H]4CCC[C@@H]4C)c3n2)CC1"
Data returned: 155

Data request: Request: "CN(C)S(=O)(=O)N1CCC(Nc2ncc3cc(CCO)c(=O)n(C4CCCC4)c3n2)CC1"
Data returned: 3.85

Data request: Request: "COCc1cc2cnc(NC3CCN(S(C)(=O)=O)CC3)nc2n([C@H]2CCC[C@H]2C)c1=O"
Data returned: 4.43

Data request: Request: CS(=O)(=O)N1CCC(Nc2ncc3cc(Cl)c(=O)n([C@@H]4CCC[C@@H](O)C4)c3n2)CC1 (single isomer, unassigned)
Data returned: 1.34

Data request: Request: C[C@]1(O)CCC[C@@H]1n1c(=O)ccc2cnc(NC3CCN(S(N)(=O)=O)CC3)nc21 (single isomer, unassigned)
Data returned: 1.46
